Test system: SW-620 colon
PROTOCOL DETAILS: NCI tumour cell line growth inhibition, 384-well format; in the data active = GI50 below about 0.43 µM; inactive = the rest
In this exercise, the only acceptable responses are active, inactive

- COMPOUND: "CCc1c(C#N)c(S[C@@H](C(N)=O)c2ccccc2)nc(N(C)C)c1C#N"
  MEASURED ON: "SW-620 colon"
  CATEGORY: "inactive"

**Q:** Tell me the assay call for C#CCC(Cc1cnc2nc(N)nc(N)c2n1)c1ccc(C(=O)N[C@@H](CCC(=O)O)C(=O)O)cc1 (some centres undefined) please.
**A:** active

**Q:** Which outcome was entered for the compound CC1=C2C[C@H]3[C@@H](CC[C@@H]4CC(NS(C)(=O)=O)CC[C@@]43C)[C@@H]2CC[C@@]2(C1)O[C@@H]1C[C@H](C)CN[C@H]1[C@H]2C (some centres undefined) in this test?
**A:** inactive

**Q:** Lab log entry: N[C@@H]1CCCC[C@H]1N.O=C([O-])C(=O)[O-].[Pt+4] — outcome as called in the assay?
**A:** inactive
